# procedure_summary: Metabolic stability assessed as half life in dog liver microsomes
# Format: ADME, Canis lupus familiaris, Microsome
measure_name: half-life

- chemical_structure: "CC(C)C(=O)N(Cc1cccc(Cl)c1Cl)[C@H]1CCNC1"
  measure_name: "half-life"
  result: "35 min"

* * *

# procedure_summary: Half life in dog at 0.013 mg/kg, po
# Assay type: ADME, organism-based, Canis lupus familiaris
# Design: dose 0.013 mg/kg, route oral
# stated_conditions: in vivo

- chemical_structure: "CC(C)C(=O)N(Cc1cccc(Cl)c1Cl)[C@H]1CCNC1"
  unit_tag: "min"
  half-life: 342

* * *

# experimental_system: Cytochrome P450 2D6 (Homo sapiens)
# Sequence (P10635 whole entry): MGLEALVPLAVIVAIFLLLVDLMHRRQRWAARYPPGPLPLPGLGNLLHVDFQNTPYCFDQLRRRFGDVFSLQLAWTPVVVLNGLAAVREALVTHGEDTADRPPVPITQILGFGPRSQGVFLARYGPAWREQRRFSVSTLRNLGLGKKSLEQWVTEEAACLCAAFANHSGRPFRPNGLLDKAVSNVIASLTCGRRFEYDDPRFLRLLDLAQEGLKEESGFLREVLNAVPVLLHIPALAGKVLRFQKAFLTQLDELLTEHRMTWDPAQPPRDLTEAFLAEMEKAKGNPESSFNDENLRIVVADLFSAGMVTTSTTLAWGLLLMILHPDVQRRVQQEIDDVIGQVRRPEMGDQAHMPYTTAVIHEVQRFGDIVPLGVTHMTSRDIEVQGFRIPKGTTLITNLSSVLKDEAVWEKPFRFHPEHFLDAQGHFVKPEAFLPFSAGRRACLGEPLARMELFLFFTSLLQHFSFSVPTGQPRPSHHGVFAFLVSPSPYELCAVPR

- chemical_structure: "CC(C)C(=O)N(Cc1ccc(Cl)cc1Cl)[C@H]1CCNC1"
  IC50: "21.8 µM"

* * *

Item-by-item account of hepatocyte CLint
# procedure_summary: in vitro
# stated_conditions: human, hepatocytes
# Description: Intrinsic clearance in human hepatocytes assessed per million cells

- chemical_structure: "CC(C)C(=O)N(Cc1ccc(Cl)cc1Cl)[C@H]1CCNC1"
  hepatocyte CLint (µL/min/1e6 cells): 4.8
- chemical_structure: "CC(C)C(=O)N(Cc1ccc(Cl)c(Cl)c1Cl)[C@H]1CCNC1"
  hepatocyte CLint (µL/min/1e6 cells): 8.8
- chemical_structure: "CC(C)C(=O)N(Cc1cccc(Cl)c1Cl)[C@H]1CCNC1"
  hepatocyte CLint (µL/min/1e6 cells): 2.7

* * *

Item-by-item account of pIC50
# experimental_system: Sodium-dependent dopamine transporter (Homo sapiens)
# Sequence (Q01959 whole entry): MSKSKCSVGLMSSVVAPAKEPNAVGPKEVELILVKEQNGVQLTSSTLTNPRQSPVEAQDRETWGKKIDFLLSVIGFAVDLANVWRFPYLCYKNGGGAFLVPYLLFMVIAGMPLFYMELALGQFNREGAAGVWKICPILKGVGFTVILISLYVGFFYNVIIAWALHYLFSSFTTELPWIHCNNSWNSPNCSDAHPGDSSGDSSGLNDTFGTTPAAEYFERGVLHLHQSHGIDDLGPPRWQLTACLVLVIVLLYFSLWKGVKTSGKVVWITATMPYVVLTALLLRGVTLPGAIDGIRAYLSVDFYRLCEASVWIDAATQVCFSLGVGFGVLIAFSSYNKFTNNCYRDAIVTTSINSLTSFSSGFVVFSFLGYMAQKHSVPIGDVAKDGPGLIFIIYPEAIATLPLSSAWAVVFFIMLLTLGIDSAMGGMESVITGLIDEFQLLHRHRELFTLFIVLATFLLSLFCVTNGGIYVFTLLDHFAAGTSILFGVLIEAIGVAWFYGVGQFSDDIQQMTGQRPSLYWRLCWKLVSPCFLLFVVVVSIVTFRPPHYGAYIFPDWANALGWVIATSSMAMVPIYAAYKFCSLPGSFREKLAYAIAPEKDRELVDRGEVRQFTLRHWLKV
# procedure_summary: Inhibition of [3H]DA reuptake at human dopamine transporter expressed in HEK293 cells by scintillation counting
# Assay type: cell-based
pIC50: −log10 of the molar value.

- chemical_structure: "CC(C)C(=O)N(Cc1ccc(Cl)cc1Cl)[C@H]1CCNC1"
  experimental_system: "Sodium-dependent dopamine transporter (Homo sapiens)"
  measurement_qualifier: "<"
  pIC50: 4.40
- chemical_structure: "CC(C)(C)CC(=O)N(Cc1ccc(Cl)cc1Cl)[C@H]1CCNC1"
  experimental_system: "Sodium-dependent dopamine transporter (Homo sapiens)"
  measurement_qualifier: "="
  pIC50: 4.99
- chemical_structure: "CC(C)C(=O)N(Cc1cccc(Cl)c1Cl)[C@H]1CCNC1"
  experimental_system: "Sodium-dependent dopamine transporter (Homo sapiens)"
  measurement_qualifier: "="
  pIC50: 5.90
- chemical_structure: "CC(C)C(=O)N(Cc1cc(Cl)cc(Cl)c1Cl)[C@H]1CCNC1"
  experimental_system: "Sodium-dependent dopamine transporter (Homo sapiens)"
  measurement_qualifier: "="
  pIC50: 4.67
- chemical_structure: "CC(C)C(=O)N(Cc1ccc(Cl)c(Cl)c1Cl)[C@H]1CCNC1"
  experimental_system: "Sodium-dependent dopamine transporter (Homo sapiens)"
  measurement_qualifier: "="
  pIC50: 5.23
- chemical_structure: "CC(C)C(=O)N(Cc1cccc(Cl)c1Cl)[C@@H]1CCNC1"
  experimental_system: "Sodium-dependent dopamine transporter (Homo sapiens)"
  measurement_qualifier: "="
  pIC50: 5.95

* * *

# procedure_summary: Volume of distribution in dog at 0.01 mg/kg, iv
# Assay type: ADME, organism-based, Canis lupus familiaris
# Design: dose 0.01 mg/kg, route intravenous
# stated_conditions: in vivo

- chemical_structure: "CC(C)C(=O)N(Cc1cccc(Cl)c1Cl)[C@H]1CCNC1"
  Vd: "0.5 L/kg"
